system: SARS2; assay type: cell-based, SARS-CoV-2; settings: SARS2, 25 μM
Please provide measured Percentage Inhibition Average 25 μM for the entries that follow.
Answer format: numeric, % implied, no suffix.

Q. Any idea what its Percentage Inhibition Average 25 μM is? The compound is COC(=O)c1csc(CN(CCN(C)C)Cc2ccccc2)c1 [SILCS30]
A. 32.80

Q. I'd like to know its Percentage Inhibition Average 25 μM. The compound in question is OC(COc1c(CNCCc2ccccc2F)cccc1N1CCNCC1)CN1CCCC1 (stereo not drawn) [SILCS22]
A. 93.63

Q. Return reported Percentage Inhibition Average 25 μM; argument: CC1=C(C(=O)NCc2ccccc2)C(c2ccc(C)o2)NC(=O)N1 (stereo not drawn) [SILCS69]
A. −26.06

Q. Bench note: what Percentage Inhibition Average 25 μM did CN(C)CCN(Cc1cocn1)Cc1cccs1 [SILCS35] show?
A. −5.43

Q. Given Cc1csc(CN(CCN(C)C)Cc2ccco2)c1 [SILCS17] , state its recorded Percentage Inhibition Average 25 μM.
A. 8.57

Q. Any idea what its Percentage Inhibition Average 25 μM is? The compound is CC1=C(C(=O)NCc2ccccc2)C(c2scc3c2OCCO3)NC(=O)N1 (stereo not drawn) [SILCS66]
A. −12.41

---

system: cells (nuclei count); settings: average value over the 5 tested concentrations (1 to 50 uM)
Assignment: determine reported Relative cell count to DMSO controls, Average (for correlation analysis) for the given molecules.
Number only, no unit.

Q. // query Relative cell count to DMSO controls, Average (for correlation analysis) value for entry "CCN(CC)CCN(Cc1ccncc1)C(=O)c1cccs1"
A. 109.96

Q. Endpoint output: Relative cell count to DMSO controls, Average (for correlation analysis) of "Cc1ccc(CN(CCN(C)C)Cc2ccc(C)s2)o1" . Value?
A. 99.66

Q. Request the reported Relative cell count to DMSO controls, Average (for correlation analysis) associated with "CN(C)CCN(Cc1cocn1)Cc1cccs1"
A. 89.91

Q. I have this molecule here, "Cc1ccc(CN(CCN(C)C)Cc2ccccc2)o1" , and I need its recorded Relative cell count to DMSO controls, Average (for correlation analysis).
A. 104.80

Q. Which Relative cell count to DMSO controls, Average (for correlation analysis) is reported for this molecule? COc1ccc(CNCCc2ccccc2F)c(OCC(O)CN2CCCC2)c1 (racemic)
A. 115.04

Q. Requested read-out: Relative cell count to DMSO controls, Average (for correlation analysis). Entry: "COc1ccc(-c2[nH]ncc2C(=O)NC2CCCCCC2)cc1OC"
A. 102.57

Q. Endpoint output: Relative cell count to DMSO controls, Average (for correlation analysis) of CN1CCN(CC(O)COc2cccc(N3CCCCC3)c2CNCCc2ccccc2F)CC1 (stereo not shown) . Value?
A. 107.74

Q. Endpoint output: Relative cell count to DMSO controls, Average (for correlation analysis) of CC1=C(C(=O)NC2CCCCCC2)C(c2cccs2)NC(=O)N1 (stereo not shown) . Value?
A. 107.80

Q. Would you kindly share the measured Relative cell count to DMSO controls, Average (for correlation analysis) for COc1ccc(CNCCc2ccccc2F)c(OCC(O)CN2CCN(C)CC2)c1 (stereo not shown) [SILCS46] ?
A. 117.29

Q. Suppose we examine the molecule "CN(C)CCN(Cc1ccsc1)Cc1cccc(-c2ccsc2)c1" ; what Relative cell count to DMSO controls, Average (for correlation analysis) value has been reported?
A. 87.60

Q. Query: Relative cell count to DMSO controls, Average (for correlation analysis); subject: "CCN(CC)CCN(Cc1ccccc1)Cc1ccc(C)o1"
A. 116.79

Q. # get_value(readout='Relative cell count to DMSO controls, Average (for correlation analysis)', item= CC1=C(C(=O)NCC2CCC2)C(c2cccs2)NC(=O)N1 (stereo not shown) )
A. 111.45

Q. What value of Relative cell count to DMSO controls, Average (for correlation analysis) has been recorded for this entry: CC1=C(C(=O)NCc2ccccc2)C(c2scc3c2OCCO3)NC(=O)N1 (stereo not shown)
A. 95.45

Q. Look up Relative cell count to DMSO controls, Average (for correlation analysis) for this molecule: "CCN(CC)CCN(Cc1cc(C)c(Br)s1)Cc1cc(C)c(Br)s1"
A. 109.39

Q. Give its Relative cell count to DMSO controls, Average (for correlation analysis) value. Item: "Cc1cc(CN(CCN(C)C)Cc2ccncc2)sc1Br"
A. 94.85

Q. Please give the measured Relative cell count to DMSO controls, Average (for correlation analysis) for this molecule: COc1ccc(C2NC(=O)NC(C)=C2C(=O)NCC2CCCCC2)cc1OC (stereo not shown)
A. 98.68

Q. Query (molecule): CC1=C(C(=O)NCc2ccccc2)C(c2ccc(C)o2)NC(=O)N1 (stereo not shown) ; field requested: Relative cell count to DMSO controls, Average (for correlation analysis)
A. 101.97

Q. Give its Relative cell count to DMSO controls, Average (for correlation analysis) value. Item: "CN(C)CCN(Cc1ccsc1)Cc1ccco1"
A. 92.94

Q. Sample COc1ccc(C2NC(=O)NC(C)=C2C(=O)NC2CCCCCC2)cc1OC (stereo not shown) — what was its Relative cell count to DMSO controls, Average (for correlation analysis)?
A. 107.58

Q. // query Relative cell count to DMSO controls, Average (for correlation analysis) value for entry "CCN(CC)CCN(Cc1ccc(C)o1)Cc1cccs1"
A. 110.00

Q. # get_value(readout='Relative cell count to DMSO controls, Average (for correlation analysis)', item= CC1=C(C(=O)NCC2CCCCC2)C(c2cccs2)NC(=O)N1 (stereo not shown) )
A. 103.83

Q. Which value of Relative cell count to DMSO controls, Average (for correlation analysis) has been reported for OC(COc1c(CNCCc2ccccc2F)cccc1N1CCNCC1)CN1CCCC1 (stereo not shown) in the records?
A. 117.98

Q. For COCC1=C(C(=O)NCC2CCC2)C(c2cccs2)NC(=O)N1 (stereo not shown) , what is its reported Relative cell count to DMSO controls, Average (for correlation analysis)?
A. 110.64

Q. So what's the measured Relative cell count to DMSO controls, Average (for correlation analysis) for this one? "Cc1cc(CN(CCN(C)C)Cc2ccsc2)oc1C"
A. 107.89

Q. Recorded Relative cell count to DMSO controls, Average (for correlation analysis) of CC1=C(C(=O)NCC2CCCCC2)C(c2cc(C)c(Br)s2)NC(=O)N1 (stereo not shown) , please.
A. 106.87
